System: C.albicans CCM 8186
Assay: MIC, broth microdilution
Type: cell-based, Candida albicans
Details: C.albicans CCM 8186, 24 h
Where a SMILES comes first, the peptide text is derived from it. [ ]: non-standard residue; d: D form. The star is where a group is joined. Palmitoyl = CCCCCCCCCCCCCCCC(=O)*; Lauroyl = CCCCCCCCCCCC(=O)*; AEEA = NCCOCCOCC(=O)O; Ahx = NCCCCCC(=O)O; βAla = NCCC(=O)O

>  <Molecule>
CCCCCCCCCCCC(=O)NCCC(=O)N[C@@H](Cc1c[nH]cn1)C(=O)NCCOCCOCC(=O)N[C@H](C(=O)N[C@@H](CCCCN)C(=O)N[C@@H](CCCCN)C(=O)N[C@H](C(=O)N[C@@H](CC(C)C)C(=O)N[C@@H](CO)C(=O)N[C@@H](CCCCN)C(=O)N[C@H](C(=O)N[C@@H](CCCCN)C(=O)N[C@@H](CCCCN)C(=O)N[C@@H](CC(C)C)C(=O)N[C@@H](CC(C)C)C(N)=O)[C@@H](C)CC)[C@@H](C)CC)[C@@H](C)CC [C12-CAR-PEG-DK5] ({Lauroyl-βAla}-H[AEEA]IKKILSKIKKLL-NH2)

>  <Target system>
C.albicans CCM 8186

>  <MIC100 (µg/mL)>
12.5

$$$$
>  <Molecule>
CC[C@H](C)[C@H](NC(=O)COCCOCCNC(=O)[C@H](Cc1c[nH]cn1)NC(=O)CCN)C(=O)N[C@@H](CCCCN)C(=O)N[C@@H](CCCCN)C(=O)N[C@H](C(=O)N[C@@H](CC(C)C)C(=O)N[C@@H](CO)C(=O)N[C@@H](CCCCN)C(=O)N[C@H](C(=O)N[C@@H](CCCCN)C(=O)N[C@@H](CCCCN)C(=O)N[C@@H](CC(C)C)C(=O)N[C@@H](CC(C)C)C(N)=O)[C@@H](C)CC)[C@@H](C)CC [CAR-PEG-DK5] (H-[βAla]H[AEEA]IKKILSKIKKLL-NH2; N-terminus and C-terminus assumed)

>  <Target system>
C.albicans CCM 8186

>  <MIC100 (µg/mL)>
15.6

$$$$
>  <Molecule>
CCCCCCCCCCCCCCCC(=O)NCCC(=O)N[C@@H](Cc1c[nH]cn1)C(=O)NCCOCCOCC(=O)N[C@H](C(=O)N[C@@H](CCCCN)C(=O)N[C@@H](CCCCN)C(=O)N[C@H](C(=O)N[C@@H](CC(C)C)C(=O)N[C@@H](CO)C(=O)N[C@@H](CCCCN)C(=O)N[C@H](C(=O)N[C@@H](CCCCN)C(=O)N[C@@H](CCCCN)C(=O)N[C@@H](CC(C)C)C(=O)N[C@@H](CC(C)C)C(N)=O)[C@@H](C)CC)[C@@H](C)CC)[C@@H](C)CC [C16-CAR-PEG-DK5] ({Palmitoyl-βAla}-H[AEEA]IKKILSKIKKLL-NH2)

>  <Target system>
C.albicans CCM 8186

>  <MIC100 (µg/mL)>
25

$$$$
>  <Molecule>
CC[C@H](C)[C@H](NC(=O)CCCCCN)C(=O)N[C@@H](CCCCN)C(=O)N[C@@H](CCCCN)C(=O)N[C@H](C(=O)N[C@@H](CC(C)C)C(=O)N[C@@H](CO)C(=O)N[C@@H](CCCCN)C(=O)N[C@H](C(=O)N[C@@H](CCCCN)C(=O)N[C@@H](CCCCN)C(=O)N[C@@H](CC(C)C)C(=O)N[C@@H](CC(C)C)C(N)=O)[C@@H](C)CC)[C@@H](C)CC [AHX-DK5] (H-[Ahx]IKKILSKIKKLL-NH2)

>  <Target system>
C.albicans CCM 8186

>  <MIC100 (µg/mL)>
12.5

$$$$
>  <Molecule>
CCCCCCCCCCCC(=O)N[C@H](C(=O)N[C@@H](CCCCN)C(=O)N[C@@H](CCCCN)C(=O)N[C@H](C(=O)N[C@@H](CC(C)C)C(=O)N[C@@H](CO)C(=O)N[C@@H](CCCCN)C(=O)N[C@H](C(=O)N[C@@H](CCCCN)C(=O)N[C@@H](CCCCN)C(=O)N[C@@H](CC(C)C)C(=O)N[C@@H](CC(C)C)C(N)=O)[C@@H](C)CC)[C@@H](C)CC)[C@@H](C)CC [Compound C12-DK5] (Lauroyl-IKKILSKIKKLL-NH2)

>  <Target system>
C.albicans CCM 8186

>  <MIC100 (µg/mL)>
3.13

$$$$
